System: BDF1 mice, B16 melanoma ip, median survival T/C
protocol text: NCI In Vivo Anticancer Drug Screen. Data for tumor model B16 Melanoma (intraperitoneal) in B6D2F1 (BDF1) mice
measurement conditions: endpoint: median survival time; dose: 100.0 mg/kg/injection; schedule: Q01DX009 (ip); vehicle: saline; higher = longer survival
Toxic doses and inconclusive results are not listed.
endpoint label: T/C

Observe how each entry below is paired with its result.
CN1CCc2cc3c(cc2C1)OCO3 = 95 % of control
N#Cc1cccnc1.NCCNCCN.[Br-].[Pt+4] = 99 % of control
CN(C)CCOC(=O)COc1ccc(Cl)cc1 = 109 % of control
CN1CCC(CO)C1 (stereo not given) = 97 % of control
C=C(NC(=O)C(=C)NC(=O)c1csc(C2=NC3c4csc(n4)C4NC(=O)c5csc(n5)C(C(C)(O)C(C)O)NC(=O)C5CSC(=N5)/C(=C/C)NC(=O)C(C(C)O)NC(=O)c5csc(n5)C3(CC2)NC(=O)C(C)NC(=O)C(=C)NC(=O)C(=C)NC(=O)C(C(C)C)NC2C=Cc3c(C(C)O)cc(nc3C2O)C(=O)OC4C)n1)C(N)=O (stereo not given) = 123 % of control
CNC=O = 99 % of control
C1CCC(C2OCCO2)CC1 = 113 % of control
CC(=O)O[C@@]1(C)[C@@H](C)C(=O)O[C@@H]2CCN3CC=C(COC(=O)[C@]1(C)O)[C@H]23 = 97 % of control

(Q) Provide the documented T/C with BDF1 mice, B16 melanoma ip, median survival T/C as the system for OCC1(CO)COC2(CCCCC2)N1
(A) 103 % of control

(Q) Provide the documented T/C with BDF1 mice, B16 melanoma ip, median survival T/C as the system for CN(C)c1n[nH]c(N)n1
(A) 96 % of control

(Q) Provide the documented T/C with BDF1 mice, B16 melanoma ip, median survival T/C as the system for C[N+](C)(C)c1nc(N)nc2c1ncn2C1OC(CO)C(O)C1O (stereo not given)
(A) 103 % of control

(Q) Provide the documented T/C with BDF1 mice, B16 melanoma ip, median survival T/C as the system for NCC1OC(OC2C(N)CC(N)C(O)C2OC2OC(CO)C(O)C2O)C(N)C(O)C1O (stereo not given)
(A) 96 % of control

(Q) Provide the documented T/C with BDF1 mice, B16 melanoma ip, median survival T/C as the system for Cc1cccc(CN)n1
(A) 118 % of control

(Q) Provide the documented T/C with BDF1 mice, B16 melanoma ip, median survival T/C as the system for O=C1OCC(O)C(O)C(O)C(O)C1O (stereo not given)
(A) 113 % of control

(Q) Provide the documented T/C with BDF1 mice, B16 melanoma ip, median survival T/C as the system for CCCNCCN
(A) 96 % of control

(Q) Provide the documented T/C with BDF1 mice, B16 melanoma ip, median survival T/C as the system for CN(C)CCCCO
(A) 96 % of control

(Q) Provide the documented T/C with BDF1 mice, B16 melanoma ip, median survival T/C as the system for Oc1cc2c(cc1O)[C@H]1c3ccc(O)c(O)c3OC[C@@]1(O)C2
(A) 103 % of control

Cited source for all entries: PubChem BioAssay AID192
